# measurement-protocol: Plasma concentration in monkeys (ex vivo occupancy study)
# experimental-conditions: male, rhesus monkey, 1 mg/kg oral twice daily 3 days, once on day 4
outcome-measure: concentration at 2 h (ng/mL)
Write it as a number; the unit ng/mL goes unstated.

Query: For the compound COc1cc(Cl)ccc1[C@H]1c2[nH]c3cccc(F)c3c2C2(CC2)CN1C(C)=O , what concentration at 2 h is on record?
Result: 154
